The reported numbers originate from patent US20210186970A1.

target: Cav1.3 L-type Ca channels (Rattus norvegicus)
Construct: expressed in transfected cells; host or cells: HEK293
Sequence (P27732 whole entry): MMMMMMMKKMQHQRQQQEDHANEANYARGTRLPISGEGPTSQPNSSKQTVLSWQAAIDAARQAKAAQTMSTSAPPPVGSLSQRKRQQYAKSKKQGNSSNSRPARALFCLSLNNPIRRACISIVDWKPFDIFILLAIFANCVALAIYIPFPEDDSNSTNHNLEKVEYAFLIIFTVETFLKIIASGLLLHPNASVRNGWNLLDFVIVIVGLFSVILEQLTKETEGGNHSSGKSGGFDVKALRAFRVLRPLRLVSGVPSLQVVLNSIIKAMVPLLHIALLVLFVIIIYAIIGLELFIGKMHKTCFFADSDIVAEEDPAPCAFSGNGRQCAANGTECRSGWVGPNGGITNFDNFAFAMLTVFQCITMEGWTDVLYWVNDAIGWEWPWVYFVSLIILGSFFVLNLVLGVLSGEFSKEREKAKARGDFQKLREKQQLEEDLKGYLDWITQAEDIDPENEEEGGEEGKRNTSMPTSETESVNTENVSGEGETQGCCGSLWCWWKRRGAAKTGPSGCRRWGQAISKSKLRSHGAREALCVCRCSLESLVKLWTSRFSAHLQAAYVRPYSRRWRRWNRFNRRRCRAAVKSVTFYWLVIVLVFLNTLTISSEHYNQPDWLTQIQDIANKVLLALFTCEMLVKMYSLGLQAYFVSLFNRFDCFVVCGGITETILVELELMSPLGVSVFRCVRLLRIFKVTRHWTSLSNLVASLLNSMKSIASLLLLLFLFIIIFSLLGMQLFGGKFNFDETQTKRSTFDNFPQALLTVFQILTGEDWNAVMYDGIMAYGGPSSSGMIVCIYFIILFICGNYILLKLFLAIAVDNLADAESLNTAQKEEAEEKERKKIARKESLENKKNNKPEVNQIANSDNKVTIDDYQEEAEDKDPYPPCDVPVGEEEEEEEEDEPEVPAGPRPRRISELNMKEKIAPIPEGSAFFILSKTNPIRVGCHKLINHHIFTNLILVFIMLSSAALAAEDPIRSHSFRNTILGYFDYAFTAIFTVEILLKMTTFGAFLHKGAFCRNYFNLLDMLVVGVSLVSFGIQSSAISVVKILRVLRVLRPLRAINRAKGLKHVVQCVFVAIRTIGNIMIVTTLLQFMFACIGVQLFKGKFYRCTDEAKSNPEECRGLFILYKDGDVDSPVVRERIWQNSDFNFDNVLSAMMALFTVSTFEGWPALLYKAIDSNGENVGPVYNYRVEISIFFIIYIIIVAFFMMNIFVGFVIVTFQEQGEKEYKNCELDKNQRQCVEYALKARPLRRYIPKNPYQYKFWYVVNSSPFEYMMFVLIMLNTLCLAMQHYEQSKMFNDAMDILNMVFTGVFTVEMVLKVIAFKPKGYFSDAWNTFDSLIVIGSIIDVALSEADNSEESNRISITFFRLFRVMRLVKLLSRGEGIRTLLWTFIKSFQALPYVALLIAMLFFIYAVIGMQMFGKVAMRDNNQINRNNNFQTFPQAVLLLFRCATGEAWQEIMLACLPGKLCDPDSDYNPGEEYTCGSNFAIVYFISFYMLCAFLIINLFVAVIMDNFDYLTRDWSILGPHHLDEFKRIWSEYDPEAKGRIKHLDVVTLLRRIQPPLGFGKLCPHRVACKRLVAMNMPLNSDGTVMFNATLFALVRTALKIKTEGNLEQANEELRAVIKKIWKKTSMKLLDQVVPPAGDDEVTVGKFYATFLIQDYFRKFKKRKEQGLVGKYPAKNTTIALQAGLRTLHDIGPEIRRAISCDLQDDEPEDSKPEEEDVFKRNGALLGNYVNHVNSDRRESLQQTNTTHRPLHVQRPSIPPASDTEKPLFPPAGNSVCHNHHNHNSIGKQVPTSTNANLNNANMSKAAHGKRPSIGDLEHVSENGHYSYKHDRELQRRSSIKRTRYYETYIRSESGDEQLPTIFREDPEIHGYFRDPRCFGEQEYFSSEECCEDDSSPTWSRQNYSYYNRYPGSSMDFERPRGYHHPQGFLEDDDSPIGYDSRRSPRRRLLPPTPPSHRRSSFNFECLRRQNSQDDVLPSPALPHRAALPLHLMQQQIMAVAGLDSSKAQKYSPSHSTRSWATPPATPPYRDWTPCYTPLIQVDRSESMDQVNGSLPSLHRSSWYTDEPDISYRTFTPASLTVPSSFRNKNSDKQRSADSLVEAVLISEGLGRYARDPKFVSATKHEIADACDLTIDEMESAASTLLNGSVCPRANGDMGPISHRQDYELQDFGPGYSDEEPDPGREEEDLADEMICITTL
Sequence (P54284 whole entry partner): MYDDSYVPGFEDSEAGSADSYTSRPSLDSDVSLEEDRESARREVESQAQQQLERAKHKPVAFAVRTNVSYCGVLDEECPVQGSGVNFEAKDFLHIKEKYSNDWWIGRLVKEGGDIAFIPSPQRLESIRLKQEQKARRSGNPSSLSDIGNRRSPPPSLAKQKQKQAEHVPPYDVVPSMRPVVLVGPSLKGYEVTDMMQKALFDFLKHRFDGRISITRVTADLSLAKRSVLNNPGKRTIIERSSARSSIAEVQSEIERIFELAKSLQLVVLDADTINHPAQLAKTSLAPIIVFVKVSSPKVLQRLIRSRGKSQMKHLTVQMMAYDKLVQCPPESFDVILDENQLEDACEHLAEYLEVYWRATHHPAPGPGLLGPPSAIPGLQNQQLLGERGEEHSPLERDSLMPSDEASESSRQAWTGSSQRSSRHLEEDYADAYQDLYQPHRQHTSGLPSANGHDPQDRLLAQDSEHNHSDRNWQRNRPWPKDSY
Sequence (P54289 25-956 partner limits assumed): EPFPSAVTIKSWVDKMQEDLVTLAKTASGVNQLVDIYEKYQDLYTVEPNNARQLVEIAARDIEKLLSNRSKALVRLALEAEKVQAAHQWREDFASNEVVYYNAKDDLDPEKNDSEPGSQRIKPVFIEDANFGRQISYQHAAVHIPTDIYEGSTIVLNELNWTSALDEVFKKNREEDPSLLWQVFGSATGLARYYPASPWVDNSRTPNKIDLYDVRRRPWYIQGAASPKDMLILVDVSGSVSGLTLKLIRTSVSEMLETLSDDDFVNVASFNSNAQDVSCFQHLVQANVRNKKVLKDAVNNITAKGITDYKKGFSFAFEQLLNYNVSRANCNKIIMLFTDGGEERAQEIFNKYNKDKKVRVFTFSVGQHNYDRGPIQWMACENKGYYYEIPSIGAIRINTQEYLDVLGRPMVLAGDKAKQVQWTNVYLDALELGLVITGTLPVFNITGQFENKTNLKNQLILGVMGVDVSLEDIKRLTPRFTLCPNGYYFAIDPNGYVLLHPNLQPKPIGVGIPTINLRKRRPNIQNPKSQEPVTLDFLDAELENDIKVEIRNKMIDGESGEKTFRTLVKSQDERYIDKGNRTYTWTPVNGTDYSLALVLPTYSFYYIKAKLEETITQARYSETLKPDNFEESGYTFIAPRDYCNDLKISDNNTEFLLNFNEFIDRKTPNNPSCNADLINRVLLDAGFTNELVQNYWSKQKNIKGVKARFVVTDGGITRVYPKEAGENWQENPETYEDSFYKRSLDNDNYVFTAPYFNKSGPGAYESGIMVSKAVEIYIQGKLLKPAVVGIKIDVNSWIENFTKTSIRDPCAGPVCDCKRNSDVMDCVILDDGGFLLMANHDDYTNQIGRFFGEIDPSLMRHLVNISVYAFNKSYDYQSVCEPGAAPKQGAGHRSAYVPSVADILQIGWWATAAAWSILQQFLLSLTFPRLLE
Sequence (P54289 957-1103 partner limits assumed): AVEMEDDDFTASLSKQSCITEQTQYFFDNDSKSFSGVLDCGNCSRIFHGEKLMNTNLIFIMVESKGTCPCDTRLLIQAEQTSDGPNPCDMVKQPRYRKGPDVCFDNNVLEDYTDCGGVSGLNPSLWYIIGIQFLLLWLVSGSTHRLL
assaySummary: FLIPR Fluo-8 calcium assay, Cav1.3 channel inhibition in HEK293 cells
Type: cell-based
cond: Table 4; Cav1.3 relative to Cav1.2 from IC50 values
# Lookup of reported Selectivity keyed by entry
measuredQuantity: Selectivity

[[record]]
compound = "O=C1CC(=O)N(C2CCCC2)C(=O)N1CCCCc1ccccc1 [Compound 2]"
target = "Cav1.3 L-type Ca channels (Rattus norvegicus)"
measuredquantity = "Selectivity"
value = 34

[[record]]
compound = "O=C1CC(=O)N(C2CCCC2)C(=O)N1CCc1cccc(Cl)c1 [Compound 8]"
target = "Cav1.3 L-type Ca channels (Rattus norvegicus)"
measuredquantity = "Selectivity"
value = 1008

[[record]]
compound = "O=C1CC(=O)N(C2CCCCC2)C(=O)N1CCc1cccc(Br)c1 [Compound 5]"
target = "Cav1.3 L-type Ca channels (Rattus norvegicus)"
measuredquantity = "Selectivity"
value = 34

[[record]]
compound = "O=C1CC(=O)N(C2CCCCC2)C(=O)N1CCc1ccc(Cl)cc1 [Compound 1]"
target = "Cav1.3 L-type Ca channels (Rattus norvegicus)"
measuredquantity = "Selectivity"
value = 35

[[record]]
compound = "O=C1CC(=O)N(C2CCCCC2)C(=O)N1CCc1cccc(C(F)(F)F)c1 [Compound 6]"
target = "Cav1.3 L-type Ca channels (Rattus norvegicus)"
measuredquantity = "Selectivity"
value = 20

[[record]]
compound = "Cc1cccc(CCN2C(=O)CC(=O)N(C3CCCCC3)C2=O)c1 [Compound 4]"
target = "Cav1.3 L-type Ca channels (Rattus norvegicus)"
measuredquantity = "Selectivity"
value = 35

[[record]]
compound = "O=C1CC(=O)N(C2CCCC2)C(=O)N1CCc1cccc(C(F)(F)F)c1 [Compound 7]"
target = "Cav1.3 L-type Ca channels (Rattus norvegicus)"
measuredquantity = "Selectivity"
value = 305

[[record]]
compound = "O=C1CC(=O)N(C2CCCCC2)C(=O)N1CCc1cccc(Cl)c1 [Compound 3]"
target = "Cav1.3 L-type Ca channels (Rattus norvegicus)"
measuredquantity = "Selectivity"
value = 38


* * *

target: Cav1.3 L-type Ca channels (Rattus norvegicus)
Construct: expressed in transfected cells; host or cells: HEK293
assaySummary: FLIPR Fluo-8 calcium assay, Cav1.3 channel inhibition in HEK293 cells
Format: cell-based
cond: first library; ratio of IC50 Cav1.2 to Cav1.3
# Lookup of reported Selectivity keyed by entry
measuredQuantity: Selectivity

[[record]]
molecule = "CCCCCCCCN1C(=O)CC(=O)N(CCc2ccc3ccccc3c2)C1=O"
value = 4.8

[[record]]
molecule = "CCCCCCCCN1C(=O)CC(=O)N(CCc2ccc(Cl)cc2)C1=O"
value = 1.9

[[record]]
molecule = "COC(=O)[C@H](C)N1C(=O)CC(=O)N(CCc2ccc(Cl)cc2)C1=O"
value = 1.1

[[record]]
molecule = "O=C1CC(=O)N(CCc2ccc3ccccc3c2)C(=O)N1CCCCc1ccccc1"
value = 1.3

[[record]]
molecule = "O=C1CC(=O)N(CCc2ccc(Cl)cc2)C(=O)N1CCCCc1ccccc1"
value = 0.9

[[record]]
molecule = "O=C1CC(=O)N(CCc2cccc(C(F)(F)F)c2)C(=O)N1CCCCc1ccccc1"
value = 2.3

[[record]]
molecule = "O=C1CC(=O)N(C2CCc3ccccc32)C(=O)N1CCc1ccc(Cl)cc1 (centres unmarked)"
value = 1.7

[[record]]
molecule = "O=C1CC(=O)N(CCc2ccc(Br)cc2)C(=O)N1CCc1ccc(Cl)cc1"
value = 1.3

